Provide the reported neutralization IC50 of each item.
SYSTEM: HIV-1 Env of Q259.d2.17 (HIV-1)
EXPERIMENT DESCRIPTION: cell-based or functional assay
Only the number, expressed in mg/L, is required.

Notebook: CAP256-VRC26.10 (antibody, V domains shown) VH: QAILVESGGGVVQPGRSLRLSCAASQFTFSGHGLHWVRQAPGKGLEWVASISFAGTKMDYADSVKGRFAISRDNSKNTLYLQMNSLRVEDTALYYCAKDMREYECEYWTSDYYDFGRPQPCIDRRGVVGIFDMWGQGTMVTVST VL: QSVLTQPPSVSAAPGQKVTISCSGSSSNIGDNYVSWYQHLPGTAPKLLIYENTRRPSGIPDRFSGSKSGTSATLAITGLQTGDEADYYCGTWDVRPNRGAVFGTGTKVTVLG , neutralization IC50 read as 24.6

Notebook: CAP256-VRC26.05 (antibody, V domains shown) VH: EVQLVESGGGVVQPGRSLRLSCAASHFSLSSYGMHWVRQAPGKGLEWVTGISFAGTKTYYGDSVRGRFTVSRDISKNTLFLQMNSLRPDDTAMYYCARDQRYYECEEWASDYYDFGREQPCLDPRGVVGIFDLWGQGTMVTVSS VL: QSALTQPPSVSAAPGQKVTISCSGNIGNNYVSWYQQVPGTAPKLLIYENNKRPSGIPDRFSGSKSGTSATLVITGLQTGDEADFYCGTWGGSLRTGGVLGTGTRVTVLG , neutralization IC50 read as 0.023

From: patent US20200199204A1
